Molecular target: androgen receptor (AR) (Homo sapiens, UniProt P10275)
Construct: transfecting C2C12 cells with a plasmid containing full-length AR along with an AR response element linked to luciferase; expressed in transfected cells; host or cells: mouse myoblastic C2C12 cells (ATCC CRL-1772), transient transfection with Lipofectamine 2000
Sequence (P10275 whole entry, species assumed): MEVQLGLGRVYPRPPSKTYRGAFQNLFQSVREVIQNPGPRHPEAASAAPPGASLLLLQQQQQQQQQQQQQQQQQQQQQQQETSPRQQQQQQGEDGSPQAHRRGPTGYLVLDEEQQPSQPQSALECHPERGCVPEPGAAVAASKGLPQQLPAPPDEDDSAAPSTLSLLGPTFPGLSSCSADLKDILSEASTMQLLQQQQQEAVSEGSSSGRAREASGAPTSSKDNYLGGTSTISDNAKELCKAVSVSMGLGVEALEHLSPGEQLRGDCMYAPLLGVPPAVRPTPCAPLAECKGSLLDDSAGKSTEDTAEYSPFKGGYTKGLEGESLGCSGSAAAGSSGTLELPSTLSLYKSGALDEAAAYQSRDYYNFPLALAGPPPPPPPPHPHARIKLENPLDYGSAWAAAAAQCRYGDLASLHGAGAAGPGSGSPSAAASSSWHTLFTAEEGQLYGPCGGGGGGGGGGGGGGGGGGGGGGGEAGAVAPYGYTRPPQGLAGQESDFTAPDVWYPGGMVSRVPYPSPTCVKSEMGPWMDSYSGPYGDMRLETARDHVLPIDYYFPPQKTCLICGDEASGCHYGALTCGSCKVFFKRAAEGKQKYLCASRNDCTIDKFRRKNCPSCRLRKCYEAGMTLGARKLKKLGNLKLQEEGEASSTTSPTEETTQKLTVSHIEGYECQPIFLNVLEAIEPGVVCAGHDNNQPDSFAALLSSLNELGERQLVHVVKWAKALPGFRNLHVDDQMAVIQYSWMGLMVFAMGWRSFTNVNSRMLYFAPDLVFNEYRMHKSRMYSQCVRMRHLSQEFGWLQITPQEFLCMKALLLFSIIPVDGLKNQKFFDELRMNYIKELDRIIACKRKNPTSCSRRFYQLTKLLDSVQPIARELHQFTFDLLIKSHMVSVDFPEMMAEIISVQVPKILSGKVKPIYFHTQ
Assay: AR transcriptional activation luciferase reporter assay in C2C12 cells (Test 1)
Assay type: cell-based
# note: boundary value 1 nM maps to Not met; EC50 below it maps to Met

A selection of reference data follows.
INSERT INTO measurements (smiles_input, class_name) VALUES
  ('CO[C@@H]1C(c2ccc(C#N)c(Cl)c2C)=NN2C[C@H](O)C[C@@H]12', 'Not met'),
  ('CO[C@@H]1C(c2ccc(C#N)c(Cl)c2C)=NN2CC[C@H](F)[C@@H]12', 'Not met'),
  ('COCCO[C@@H]1C(c2ccc(C#N)c(Cl)c2C)=NN2C[C@H](O)C[C@@H]12', 'Not met'),
  ('Cc1c(C2=NN3CC[C@H](O)[C@H]3[C@@H]2OC(C)C)ccc(C#N)c1Cl', 'Not met'),
  ('CCO[C@@H]1C(c2ccc(C#N)c(Cl)c2C)=NN2CC[C@@H](O)[C@@H]12', 'Met'),
  ('CO[C@@H]1C(c2ccc(C#N)c(Cl)c2C)=NN2CC(=O)C[C@@H]12', 'Not met');

Proceed to the following item.
*Q* For this molecule, is EC50 lower than 1 nM? CO[C@@H]1C(c2ccc(C#N)c(Cl)c2C)=NN2CC(F)(F)C[C@@H]12
*A* Met
